Experimental System: Bile salt export pump (Homo sapiens, UniProt O95342)
Listing: IC50 of selected compounds
Test Readout: IC50 (µM)

{"columns": ["Compound", "Unit", "Bound Operator", "Measurement"],
 "data": [
  ["CCOC(=O)[C@H](CCc1ccccc1)N[C@@H](C)C(=O)N1Cc2ccccc2C[C@H]1C(=O)O", "µM", "=", 15.5],
  ["N=C(N)N/N=C/c1c(Cl)cccc1Cl [GUANABENZ]", "µM", "=", 344],
  ["c1ccc2c(CCC3CCNCC3)c[nH]c2c1 [INDALPINE]", "µM", ">", 1000],
  ["CCCc1c2nc(C(=O)O)cc(C(F)(F)F)c2cc2c(=O)cc(C(=O)O)oc12", "µM", "=", 365],
  ["Cc1nc(C)c(C)nc1C [LIGUSTRAZINE]", "µM", ">", 1000],
  ["CC(=O)CC(c1ccccc1)c1c(O)c2ccccc2oc1=O (stereo not given) [WARFARIN]", "µM", "=", 115],
  ["Cc1ccc2c(c1)c1c(n2CCc2ccc(C)nc2)CCN(C)C1 [LATREPIRDINE]", "µM", "=", 136],
  ["Cc1oncc1C(=O)Nc1ccc(C(F)(F)F)cc1 [LEFLUNOMIDE]", "µM", "=", 110],
  ["CCCc1c2nc(C(=O)O)cc(N(C)C(C)=O)c2cc2c(=O)cc(C(=O)O)oc12", "µM", ">", 1000],
  ["COc1cc2c(cc1OC)C(=O)C(CC1CCN(Cc3ccccc3)CC1)C2 (stereo not given) [DONEPEZIL]", "µM", "=", 146],
  ["Cc1cc2c(cc(C(=O)O)n2Cc2ccc(Cl)c(Cl)c2)o1", "µM", "=", 15.9],
  ["C[C@@H]1O[C@@H](O[C@H]2C[C@@H](O)[C@]3(CO)[C@H]4[C@H](O)C[C@]5(C)[C@@H](C6=CC(=O)OC6)CC[C@]5(O)[C@@H]4CC[C@]3(O)C2)[C@H](O)[C@H](O)[C@H]1O [OUABAIN]", "µM", ">", 1000],
  ["CC[C@@H](C(N)=O)N1CCCC1=O", "µM", ">", 1000],
  ["C[C@]12CCC(=O)C=C1CC[C@@H]1[C@@H]2[C@@H](O)C[C@@]2(C)[C@H]1CC[C@]2(O)C(=O)CO [HYDROCORTISONE]", "µM", "=", 252],
  ["CC1(C)CC(O)CC(C)(C)N1[O] [TEMPOL]", "µM", ">", 1000],
  ["O=C1CC[C@@]2(O)[C@H]3Cc4ccc(O)c5c4[C@@]2(CCN3CC2CC2)[C@H]1O5 [NALTREXONE]", "µM", ">", 1000],
  ["C[C@@](Cc1ccc(O)c(O)c1)(NN)C(=O)O [CARBIDOPA ANHYDROUS]", "µM", ">", 1000],
  ["CN(C)c1nc(N(C)C)nc(N(C)C)n1 [ALTRETAMINE]", "µM", ">", 1000],
  ["CCCCCC(O)C1C(=O)OC(C)C(O)/C=C/C=C/C=C/C=C/C=C(/C)C(O)CC(O)CC(O)CC(O)CC(O)CC(O)CC1O (stereo not given)", "µM", "=", 164],
  ["C[N+](C)(C)CCOC(N)=O [CARBAMOYLCHOLINE]", "µM", ">", 1000],
  ["CCCCc1nc(Cl)c(CO)n1Cc1ccc(-c2ccccc2-c2nn[nH]n2)cc1 [LOSARTAN]", "µM", "<", 10],
  ["CCCc1c2nc(C(=O)O)cc(O)c2cc2c(=O)cc(C(=O)O)oc12", "µM", ">", 1000],
  ["Cc1cccc(N(C)C(=S)Oc2ccc3ccccc3c2)c1 [TOLNAFTATE]", "µM", "<", 10.3],
  ["CCN(CC)CCNC(=O)c1c(C)[nH]c(/C=C2\\C(=O)Nc3ccc(F)cc32)c1C [SUNITINIB]", "µM", "=", 45.8],
  ["O=C(O)c1ccc(NC(=O)[C@H](Cc2ccc(O)cc2)NC(=O)c2ccccc2)cc1 [BENTIROMIDE]", "µM", "=", 235],
  ["CC1=C(C(=O)O)N2C(=O)[C@@H](NC(=O)C(N)C3=CCC=CC3)C2SC1 (stereo not given in full)", "µM", ">", 1000],
  ["N=C(N)NC(=O)c1nc(Cl)c(N)nc1N [AMILORIDE]", "µM", ">", 1000],
  ["O=C(NCC1CCCCN1)c1cc(OCC(F)(F)F)ccc1OCC(F)(F)F (stereo not given) [FLECAINIDE]", "µM", "=", 218],
  ["CCN(CC)CCNC(=O)c1ccc(NC(C)=O)cc1 [ACECAINIDE]", "µM", ">", 1000],
  ["Oc1ccc(Cl)c2cccnc12 [CLOXYQUIN]", "µM", "=", 357],
  ["CCC1(C)CC(=O)NC1=O (stereo not given) [ETHOSUXIMIDE]", "µM", ">", 1000],
  ["CCC(COC(=O)c1cc(OC)c(OC)c(OC)c1)(c1ccccc1)N(C)C (stereo not given) [TRIMEBUTINE]", "µM", "<", 10],
  ["N=C(N)N1CCc2ccccc2C1 [DEBRISOQUIN]", "µM", ">", 952],
  ["CC(C)(C)NCC(O)COc1cccc2c1CC(O)C(O)C2 (stereo not given) [NADOLOL]", "µM", ">", 1000],
  ["CCN1CCC[C@H]1CNC(=O)c1c(OC)ccc(Br)c1OC [REMOXIPRIDE]", "µM", "<", 10],
  ["COc1c(C(=O)O)n(Cc2ccc(Cl)c(Cl)c2)c2ccc(O)cc12", "µM", "=", 39.6],
  ["CCc1cc(CC)c2oc(C(=O)O)cc(=O)c2c1O", "µM", "=", 112],
  ["O=C(Nc1ccc(C(=O)O)c(O)c1)c1ccccc1 [BENZOYLPAS]", "µM", ">", 1000],
  ["Oc1ccc(C2CNCCc3c2cc(O)c(O)c3Cl)cc1 (stereo not given) [FENOLDOPAM]", "µM", ">", 1000],
  ["O=[N+]([O-])c1cc([As](=O)(O)O)ccc1O [ROXARSONE]", "µM", ">", 1000]
]}
